Provide the recorded binding signal for the entries that follow.
# MEASURED TARGET: HIF-1 (HIF-1alpha/HIF-1beta (ARNT) heterodimer) (Homo sapiens?, UniProt Q16665;P27540 Q16665:1-826,P27540:2-789)
# Sequence (Q16665 whole entry, chain 1 of 2): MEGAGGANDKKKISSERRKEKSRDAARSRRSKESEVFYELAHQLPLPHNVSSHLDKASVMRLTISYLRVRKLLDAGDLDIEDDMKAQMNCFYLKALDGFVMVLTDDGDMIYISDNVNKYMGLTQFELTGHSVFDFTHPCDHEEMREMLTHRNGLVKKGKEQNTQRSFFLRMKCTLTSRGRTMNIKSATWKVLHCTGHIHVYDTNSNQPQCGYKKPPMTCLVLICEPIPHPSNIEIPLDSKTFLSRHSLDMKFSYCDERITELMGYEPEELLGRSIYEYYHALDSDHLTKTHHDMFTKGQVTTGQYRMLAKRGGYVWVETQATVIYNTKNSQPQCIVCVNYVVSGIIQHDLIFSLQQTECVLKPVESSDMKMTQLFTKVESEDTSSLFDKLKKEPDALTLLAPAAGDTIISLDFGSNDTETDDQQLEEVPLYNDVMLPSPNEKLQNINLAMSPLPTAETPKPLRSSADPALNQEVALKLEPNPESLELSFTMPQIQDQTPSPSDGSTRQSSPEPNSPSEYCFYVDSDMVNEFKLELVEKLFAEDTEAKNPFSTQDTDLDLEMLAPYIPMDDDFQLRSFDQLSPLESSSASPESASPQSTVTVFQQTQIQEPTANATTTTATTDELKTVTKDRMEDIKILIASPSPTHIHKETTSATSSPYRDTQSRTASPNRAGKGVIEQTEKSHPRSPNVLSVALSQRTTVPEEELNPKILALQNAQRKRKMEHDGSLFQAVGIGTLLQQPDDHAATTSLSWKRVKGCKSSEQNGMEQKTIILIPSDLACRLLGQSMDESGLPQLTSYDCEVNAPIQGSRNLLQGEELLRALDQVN
# Sequence (P27540 2-789, chain 2 of 2): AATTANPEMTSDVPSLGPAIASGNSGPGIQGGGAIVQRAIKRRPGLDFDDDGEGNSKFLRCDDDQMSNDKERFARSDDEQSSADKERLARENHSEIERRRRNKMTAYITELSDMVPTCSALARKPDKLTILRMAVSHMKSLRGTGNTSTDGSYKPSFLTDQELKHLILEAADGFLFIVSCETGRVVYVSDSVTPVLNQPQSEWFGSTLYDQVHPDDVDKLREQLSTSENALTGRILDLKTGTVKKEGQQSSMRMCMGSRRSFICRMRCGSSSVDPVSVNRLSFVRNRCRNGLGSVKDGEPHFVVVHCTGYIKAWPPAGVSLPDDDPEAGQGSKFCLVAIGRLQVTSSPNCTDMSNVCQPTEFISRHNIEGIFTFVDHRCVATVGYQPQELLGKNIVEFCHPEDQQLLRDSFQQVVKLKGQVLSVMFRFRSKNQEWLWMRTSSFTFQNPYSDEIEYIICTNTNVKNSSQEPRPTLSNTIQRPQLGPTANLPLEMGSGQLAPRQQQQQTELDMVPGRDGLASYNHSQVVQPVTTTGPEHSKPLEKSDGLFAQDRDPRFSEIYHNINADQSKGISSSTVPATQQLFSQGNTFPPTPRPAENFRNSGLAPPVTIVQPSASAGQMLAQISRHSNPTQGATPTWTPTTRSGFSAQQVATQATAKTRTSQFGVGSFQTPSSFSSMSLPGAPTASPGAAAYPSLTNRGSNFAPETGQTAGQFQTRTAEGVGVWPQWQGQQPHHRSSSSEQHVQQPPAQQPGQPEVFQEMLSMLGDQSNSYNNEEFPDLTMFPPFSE
# PROCEDURE TEXT: competition; TransAM
# RUN PARAMETERS: protein: extract; tags: none (endogenous, nuclear extract)
Give bare numbers, in ratio.

Batch: binding signal for all items listed.
1. decoy 957 (dsDNA) DNA 1: CCAGCGCACGTGCCTCAGG DNA 2: CCTGAGGCACGTGCGCTGG
2. decoy 949 (dsDNA) DNA 1: CCAGCGTACGGGCCTCAGG DNA 2: CCTGAGGCCCGTACGCTGG
3. decoy 903 (dsDNA) DNA 1: CACCTGCATACGTGGGCTCCA DNA 2: TGGAGCCCACGTATGCAGGTG
4. decoy 815/816 (dsDNA) DNA 1: GTGAGACGTGCGGCTTCCGTTTG DNA 2: CAAACGGAAGCCGCACGTCTCAC

Reply:
1: 1.41; 2: 2.73; 3: 1.94; 4: 4.43
